Listing of entries alongside the reported selectivity ratio.
- Experiment summary: Selectivity index, ratio of TC50 for african green monkey (Cercopithecus aethiops) Vero cells to IC50 for chloroquine-sensitive Plasmodium falciparum D6
- Format: toxicity, cell-based
Reported endpoint: selectivity ratio

Compound: C[C@H]1[C@@H](OCC(=O)CO[C@H]2O[C@@H]3O[C@@]4(C)CC[C@H]5[C@H](C)CC[C@@H]([C@H]2C)[C@@]35OO4)O[C@@H]2O[C@@]3(C)CC[C@H]4[C@H](C)CC[C@@H]1[C@@]24OO3
Test value: > 6800
//
Compound: C[C@H]1[C@@H](OCC(O)CO[C@@H]2C[C@@H]3CC[C@@H](C)[C@@H]4CC[C@@]5(C)OO[C@@]34[C@H](O2)O5)O[C@@H]2O[C@@]3(C)CC[C@H]4[C@H](C)CC[C@@H]1[C@@]24OO3 (stereo not given in full)
Test value: > 23800
//
Compound: C[C@@H]1CC[C@H]2[C@@H](C)C(=O)O[C@@H]3O[C@@]4(C)CC[C@@H]1[C@]32OO4
Test value: > 170
//
Compound: C[C@H]1[C@@H](OCCO[C@H]2O[C@@H]3O[C@@]4(C)CC[C@H]5[C@H](C)CC[C@@H]([C@H]2C)[C@@]35OO4)O[C@@H]2O[C@@]3(C)CC[C@H]4[C@H](C)CC[C@@H]1[C@@]24OO3
Test value: > 48
//
Compound: C[C@H]1[C@@H](O[C@H]2CC[C@H](O[C@H]3O[C@@H]4O[C@@]5(C)CC[C@H]6[C@H](C)CC[C@@H]([C@H]3C)[C@@]46OO5)CC2)O[C@@H]2O[C@@]3(C)CC[C@H]4[C@H](C)CC[C@@H]1[C@@]24OO3
Test value: 1360

----------
- Experiment summary: Selectivity index, ratio of TC50 for african green monkey (Cercopithecus aethiops) Vero cells to IC50 for chloroquine-sensitive Plasmodium falciparum D6
- Type: toxicity, cell-based
Listing of entries alongside the reported selectivity ratio.

Compound: C[C@H]1[C@H](OCCO[C@H]2O[C@@H]3O[C@@]4(C)CC[C@H]5[C@H](C)CC[C@@H]([C@H]2C)[C@@]35OO4)O[C@@H]2O[C@@]3(C)CC[C@H]4[C@H](C)CC[C@@H]1[C@@]24OO3
selectivity ratio: > 25

Compound: C[C@H]1[C@H](OCCCCO[C@H]2O[C@@H]3O[C@@]4(C)CC[C@H]5[C@H](C)CC[C@@H]([C@H]2C)[C@@]35OO4)O[C@@H]2O[C@@]3(C)CC[C@H]4[C@H](C)CC[C@@H]1[C@@]24OO3
selectivity ratio: 43

Compound: C[C@H]1[C@@H](O[C@H]2O[C@@H]3O[C@@]4(C)CC[C@H]5[C@H](C)CC[C@@H]([C@H]2C)[C@@]35OO4)O[C@@H]2O[C@@]3(C)CC[C@H]4[C@H](C)CC[C@@H]1[C@@]24OO3
selectivity ratio: > 73

Compound: C[C@H]1[C@@H](O[C@@H](C)CO[C@H]2O[C@@H]3O[C@@]4(C)CC[C@H]5[C@H](C)CC[C@@H]([C@H]2C)[C@@]35OO4)O[C@@H]2O[C@@]3(C)CC[C@H]4[C@H](C)CC[C@@H]1[C@@]24OO3
selectivity ratio: > 21

Compound: COCC(CO[C@H]1O[C@@H]2O[C@@]3(C)CC[C@H]4[C@H](C)CC[C@@H]([C@H]1C)[C@@]24OO3)O[C@H]1O[C@@H]2O[C@@]3(C)CC[C@H]4[C@H](C)CC[C@@H]([C@H]1C)[C@@]24OO3 (stereo not given in full)
selectivity ratio: > 43

----------
- Test system: A498
- Experiment summary: Growth inhibition of human A498 cells after 48 hrs by sulforhodamine B assay
- Format: functional
- Protocol conditions: A498, 48 h
Listing of entries alongside the reported GI50.

Molecule: C[C@H]1[C@@H](O[C@H]2CC[C@H](O[C@H]3O[C@@H]4O[C@@]5(C)CC[C@H]6[C@H](C)CC[C@@H]([C@H]3C)[C@@]46OO5)CC2)O[C@@H]2O[C@@]3(C)CC[C@H]4[C@H](C)CC[C@@H]1[C@@]24OO3
GI50 / nM: 376
//
Molecule: C[C@H]1[C@@H](O[C@@H](C)CO[C@H]2O[C@@H]3O[C@@]4(C)CC[C@H]5[C@H](C)CC[C@@H]([C@H]2C)[C@@]35OO4)O[C@@H]2O[C@@]3(C)CC[C@H]4[C@H](C)CC[C@@H]1[C@@]24OO3
GI50 / nM: 409
//
Molecule: COCC(CO[C@H]1O[C@@H]2O[C@@]3(C)CC[C@H]4[C@H](C)CC[C@@H]([C@H]1C)[C@@]24OO3)O[C@H]1O[C@@H]2O[C@@]3(C)CC[C@H]4[C@H](C)CC[C@@H]([C@H]1C)[C@@]24OO3 (some centres undefined)
GI50 / nM: 148
//
Molecule: C[C@H]1[C@@H](OCCO[C@H]2O[C@@H]3O[C@@]4(C)CC[C@H]5[C@H](C)CC[C@@H]([C@H]2C)[C@@]35OO4)O[C@@H]2O[C@@]3(C)CC[C@H]4[C@H](C)CC[C@@H]1[C@@]24OO3
GI50 / nM: 77200

----------
- Test system: TK-10
- Experiment summary: Growth inhibition of human TK10 cells after 48 hrs by sulforhodamine B assay
- Type: functional
- Protocol conditions: TK-10, 48 h
Listing of entries alongside the reported GI50.

Molecule: COCC(CO[C@H]1O[C@@H]2O[C@@]3(C)CC[C@H]4[C@H](C)CC[C@@H]([C@H]1C)[C@@]24OO3)O[C@H]1O[C@@H]2O[C@@]3(C)CC[C@H]4[C@H](C)CC[C@@H]([C@H]1C)[C@@]24OO3 (stereo partly drawn)
GI50: 58 nM

Molecule: C[C@H]1[C@@H](O[C@H]2CC[C@@H](O[C@H]3O[C@@H]4O[C@@]5(C)CC[C@H]6[C@H](C)CC[C@@H]([C@H]3C)[C@@]46OO5)CC2)O[C@@H]2O[C@@]3(C)CC[C@H]4[C@H](C)CC[C@@H]1[C@@]24OO3
GI50: 29 nM

Molecule: C[C@H]1[C@@H](O[C@H]2CC[C@H](O[C@H]3O[C@@H]4O[C@@]5(C)CC[C@H]6[C@H](C)CC[C@@H]([C@H]3C)[C@@]46OO5)CC2)O[C@@H]2O[C@@]3(C)CC[C@H]4[C@H](C)CC[C@@H]1[C@@]24OO3
GI50: 119 nM

----------
Listing of entries alongside the reported GI50.
- Test system: SK-OV-3
- Experiment summary: Growth inhibition of human SKOV3 cells after 48 hrs by sulforhodamine B assay
- Format: functional
- Protocol conditions: SK-OV-3, 48 h

Compound: C[C@H]1[C@@H](OCC(O)CO[C@@H]2C[C@@H]3CC[C@@H](C)[C@@H]4CC[C@@]5(C)OO[C@@]34[C@H](O2)O5)O[C@@H]2O[C@@]3(C)CC[C@H]4[C@H](C)CC[C@@H]1[C@@]24OO3 (stereo not given in full)
GI50 / µM: 21.4
//
Compound: C[C@H]1[C@H](OCCCCO[C@H]2O[C@@H]3O[C@@]4(C)CC[C@H]5[C@H](C)CC[C@@H]([C@H]2C)[C@@]35OO4)O[C@@H]2O[C@@]3(C)CC[C@H]4[C@H](C)CC[C@@H]1[C@@]24OO3
GI50 / µM: 7.21
//
Compound: C[C@H]1[C@@H](O[C@H]2CC[C@@H](O[C@H]3O[C@@H]4O[C@@]5(C)CC[C@H]6[C@H](C)CC[C@@H]([C@H]3C)[C@@]46OO5)CC2)O[C@@H]2O[C@@]3(C)CC[C@H]4[C@H](C)CC[C@@H]1[C@@]24OO3
GI50 / µM: 0.034
//
Compound: C[C@H]1[C@@H](O[C@H]2CC[C@H](O[C@H]3O[C@@H]4O[C@@]5(C)CC[C@H]6[C@H](C)CC[C@@H]([C@H]3C)[C@@]46OO5)CC2)O[C@@H]2O[C@@]3(C)CC[C@H]4[C@H](C)CC[C@@H]1[C@@]24OO3
GI50 / µM: 0.166
//
Compound: C=C1[C@@H](OCCCO[C@H]2O[C@@H]3O[C@@]4(C)CC[C@H]5[C@H](C)CC[C@@H](C2=C)[C@@]35OO4)O[C@@H]2O[C@@]3(C)CC[C@H]4[C@H](C)CC[C@@H]1[C@@]24OO3
GI50 / µM: 10.9

----------
- Experiment summary: Cytotoxicity against african green monkey Vero cells after 48 hrs by neutral red assay
- Type: cell-based
- Protocol conditions: chlorocebus sabaeus, read-out: TC50
Listing of entries alongside the reported CC50 at 48 h.

Compound: C[C@H]1[C@@H](OCCCO[C@H]2O[C@@H]3O[C@@]4(C)CC[C@H]5[C@H](C)CC[C@@H]([C@H]2C)[C@@]35OO4)O[C@@H]2O[C@@]3(C)CC[C@H]4[C@H](C)CC[C@@H]1[C@@]24OO3
CC50 at 48 h: 296 µM
//
Compound: C[C@H]1[C@@H](OCCO[C@H]2O[C@@H]3O[C@@]4(C)CC[C@H]5[C@H](C)CC[C@@H]([C@H]2C)[C@@]35OO4)O[C@@H]2O[C@@]3(C)CC[C@H]4[C@H](C)CC[C@@H]1[C@@]24OO3
CC50 at 48 h: > 80 µM
//
Compound: C[C@@H]1CC[C@H]2[C@@H](C)C(=O)O[C@@H]3O[C@@]4(C)CC[C@@H]1[C@]32OO4 [ARTEMISININ]
CC50 at 48 h: > 1690 µM
//
Compound: COCC(CO[C@H]1O[C@@H]2O[C@@]3(C)CC[C@H]4[C@H](C)CC[C@@H]([C@H]1C)[C@@]24OO3)O[C@H]1O[C@@H]2O[C@@]3(C)CC[C@H]4[C@H](C)CC[C@@H]([C@H]1C)[C@@]24OO3 (stereo partly specified)
CC50 at 48 h: > 745 µM
//
Compound: C[C@H]1[C@@H](O[C@H]2CC[C@H](O[C@H]3O[C@@H]4O[C@@]5(C)CC[C@H]6[C@H](C)CC[C@@H]([C@H]3C)[C@@]46OO5)CC2)O[C@@H]2O[C@@]3(C)CC[C@H]4[C@H](C)CC[C@@H]1[C@@]24OO3
CC50 at 48 h: > 7340 µM
//
Compound: C[C@H]1[C@@H](O[C@@H](C)CO[C@H]2O[C@@H]3O[C@@]4(C)CC[C@H]5[C@H](C)CC[C@@H]([C@H]2C)[C@@]35OO4)O[C@@H]2O[C@@]3(C)CC[C@H]4[C@H](C)CC[C@@H]1[C@@]24OO3
CC50 at 48 h: > 78 µM

Source of measurements: ChEMBL document CHEMBL1140860
